Cited source: paper PMC4013825

Target: SERCA2a (sarco/endoplasmic reticulum calcium ATPase) (Canis lupus)
Sequence (O46674 whole entry): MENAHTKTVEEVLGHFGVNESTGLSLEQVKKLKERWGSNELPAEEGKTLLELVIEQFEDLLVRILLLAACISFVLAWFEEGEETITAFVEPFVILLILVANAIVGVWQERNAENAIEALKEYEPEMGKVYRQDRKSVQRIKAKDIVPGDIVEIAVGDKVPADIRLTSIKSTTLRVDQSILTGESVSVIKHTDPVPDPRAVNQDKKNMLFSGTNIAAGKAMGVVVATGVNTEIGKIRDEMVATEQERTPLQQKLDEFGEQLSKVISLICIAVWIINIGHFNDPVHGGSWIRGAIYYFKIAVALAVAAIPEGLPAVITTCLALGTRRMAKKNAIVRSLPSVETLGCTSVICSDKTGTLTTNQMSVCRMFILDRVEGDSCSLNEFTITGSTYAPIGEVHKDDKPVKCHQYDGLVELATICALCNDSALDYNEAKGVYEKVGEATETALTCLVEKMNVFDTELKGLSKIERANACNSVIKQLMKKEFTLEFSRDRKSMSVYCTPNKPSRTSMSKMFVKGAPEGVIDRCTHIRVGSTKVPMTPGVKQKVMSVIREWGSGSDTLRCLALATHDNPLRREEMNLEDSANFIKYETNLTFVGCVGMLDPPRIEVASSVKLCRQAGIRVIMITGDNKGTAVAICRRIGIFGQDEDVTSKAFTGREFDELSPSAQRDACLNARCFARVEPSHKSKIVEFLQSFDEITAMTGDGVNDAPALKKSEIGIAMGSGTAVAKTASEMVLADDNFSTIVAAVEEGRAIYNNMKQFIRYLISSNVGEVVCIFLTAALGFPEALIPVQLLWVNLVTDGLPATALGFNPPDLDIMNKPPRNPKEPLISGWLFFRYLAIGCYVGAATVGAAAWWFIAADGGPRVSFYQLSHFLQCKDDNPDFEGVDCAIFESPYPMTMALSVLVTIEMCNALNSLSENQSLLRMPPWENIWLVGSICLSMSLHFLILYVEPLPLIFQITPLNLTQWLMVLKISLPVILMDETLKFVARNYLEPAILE
Assay: live-cell intramolecular FRET lifetime dose-response
Format: cell-based
metric: Kd

Input line: Assign Kd to the following record: CC(=O)C1=C(O)[C@@H]2[C@H]3c4c[nH]c5cccc(c45)C[C@H]3C(C)(C)N2C1=O
Output line: ~40 nM
